target: T1, CD3 expressed on cell-surface of primary human T cells (human, UniProt P07766 23-207; P04234 22-171); test: flow cytometry competition vs murine SP34-AF488 on human T cells, n = 2
T1 construct: also called cell-surface CD3; human CD3
T1 sequence (P07766 23-207 limits assumed, chain 1 of 2): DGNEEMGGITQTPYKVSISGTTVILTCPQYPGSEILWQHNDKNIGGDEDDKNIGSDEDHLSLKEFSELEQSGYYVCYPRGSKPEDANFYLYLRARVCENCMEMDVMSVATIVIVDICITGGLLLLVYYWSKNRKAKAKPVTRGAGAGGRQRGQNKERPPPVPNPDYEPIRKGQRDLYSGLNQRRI
T1 sequence (P04234 22-171 limits assumed, chain 2 of 2): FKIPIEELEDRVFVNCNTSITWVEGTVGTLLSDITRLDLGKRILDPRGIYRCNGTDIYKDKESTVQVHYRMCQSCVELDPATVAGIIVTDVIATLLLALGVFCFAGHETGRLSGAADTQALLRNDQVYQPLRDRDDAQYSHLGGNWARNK
Record form. Attribute: IC50. Fill in for each entry.
Answers are plain numbers, in µg/mL.

Batch lookup, IC50 per entry.
1. huSP34.3.2 Fab-HF (Fab, V domains shown) VH: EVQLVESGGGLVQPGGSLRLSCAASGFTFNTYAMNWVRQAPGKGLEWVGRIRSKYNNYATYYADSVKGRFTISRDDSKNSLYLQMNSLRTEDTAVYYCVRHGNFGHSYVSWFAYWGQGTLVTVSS VL: QAVVTQEPSLTVSPGGTVTLTCGSSTGAVTTSNYANWVQQKPGQAPRGLIGGTSNRAPWTPARFSGSLLGGKAALTLSGAQPEDEAEYYCALWYSNLWVFGGGTKLTVL
2. huSP34.3.6 Fab-HF (Fab, V domains shown) VH: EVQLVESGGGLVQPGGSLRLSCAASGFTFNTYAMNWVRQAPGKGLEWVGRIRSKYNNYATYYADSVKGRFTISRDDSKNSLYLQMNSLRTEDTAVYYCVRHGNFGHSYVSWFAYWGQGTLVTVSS VL: QAVVTQPPSLTVSPGGTVTLTCGSSTGAVTTGHYANWVQQKPGQAPRGLIGGTSNRAPGVPARFSGSLSGGKAALTISGAQPEDEAEYYCALWYSARWVFGGGTKLTVL

**Result**
1. 6.44
2. 1.03
